Experiment: Rat 28-day toxicokinetics
Assay type: in vivo
Conditions: Sprague Dawley (Crl:CD (SD)IGS BR), plasma, po, 50 mg/kg/day, Day 28, male, read-out: AUC within 24 hours post dosing
Procedure: In the rat repeated-dose toxicokinetic study, fexinidazole was administered orally by gavage once a day for 28 consecutive days to ten or fifteen Crl:CD (SD)IGS BR rats/sex/group at doses of 50, 200, or 800 mg/kg/day. […] Systemic exposure to fexinidazole and its sulfoxide and sulfone metabolites was evaluated in three additional animals/sex/group. […] ULOQ Upper limit of quantification […] 24 hours post dosing was calculated and denoted AUC0-24. […]
value-type: AUC (ng·h/mL)
Give the quantity in ng·h/mL, number only.

For reference, reported AUC for Cn1c([N+](=O)[O-])cnc1COc1ccc([S+](C)[O-])cc1 (stereo not shown) [Fexinidazole sulfoxide] stands at 29500

---

Assay: Dog single-dose IV and oral pharmacokinetics
Assay type: in vivo
Settings: male, Beagle, dog, plasma; fexinidazole 10 mg/kg oral; read-out: t1/2,z (converted)
Measured half-life, listed per entry for reference.
Expressed in h, but write only the number.

Form: compound = CSc1ccc(OCc2ncc([N+](=O)[O-])n2C)cc1 [Fexinidazole] ; half-life = 1.93

compound Cn1c([N+](=O)[O-])cnc1COc1ccc([S+](C)[O-])cc1 (centres unmarked) [Fexinidazole sulfoxide] , half-life observed: 5.72

---

A collection of compounds and their measured AUC
Assay: Rat 28-day toxicokinetics
Format: in vivo
Details: Sprague Dawley (Crl:CD (SD)IGS BR), plasma, po, 800 mg/kg/day, Day 28, female (n=2), read-out: AUC within 24 hours post dosing
Just the number please, in µg·h/mL, no unit attached.

compound: CSc1ccc(OCc2ncc([N+](=O)[O-])n2C)cc1
AUC (µg·h/mL): 7.64

Would you kindly look at the next entry?
Lab book: AUC of Cn1c([N+](=O)[O-])cnc1COc1ccc([S+](C)[O-])cc1 (centres unmarked) [Fexinidazole sulfoxide] noted as 292

---

Assay: Rat 28-day toxicokinetics
Format: in vivo
Settings: female, Sprague Dawley (Crl:CD (SD)IGS BR), plasma, po, 800 mg/kg, Day 1, female
Property: Cmax; scope: individual compounds
Please reply with the bare figure in ng/mL and do not write the unit itself.

# example entries with known answers
compound: Cn1c([N+](=O)[O-])cnc1COc1ccc(S(C)(=O)=O)cc1
unit-of-measure: ng/mL
Cmax: 44800
--
compound: Cn1c([N+](=O)[O-])cnc1COc1ccc([S+](C)[O-])cc1 (stereo not drawn) [Fexinidazole sulfoxide]
unit-of-measure: ng/mL
Cmax: 30600

get_value(item= CSc1ccc(OCc2ncc([N+](=O)[O-])n2C)cc1 , readout=Cmax) returns 1480

---

Assay: in vitro
Details: human, Caco-2, pH 7.4
value-type: Papp A→B at 2 h, 5 µM (×10⁻⁶ cm/s)
Field format: number, assumed ×10⁻⁶ cm/s, no unit text.

According to the records, this molecule CSc1ccc(OCc2ncc([N+](=O)[O-])n2C)cc1 [Fexinidazole] displays Papp A→B at 2 h, 5 µM of 57.2

---

Assay: Hepatocyte intrinsic clearance and metabolite profile
Format: in vitro ADME, cynomolgus monkey
Conditions: male, cynomolgus, cynomolgus monkey, cryopreserved hepatocytes; 1 µM; read-out: CLint in vitro
Protocol: Fexinidazole was incubated with cryopreserved hepatocytes from male CD-1 mice, male Sprague Dawley rats, male beagle dogs, male cynomolgus monkeys, and from pooled white or African-American human donor samples (purchased commercially), at concentrations of 1 µM and 10 µM. […] The incubated samples were analyzed by LC-MS after extraction into acetonitrile. […] The number of viable cells was determined using a Trypan Blue exclusion method. […]
value-type: hepatocyte CLint at 1 µM (µL/min/1e6 cells)
Record the value in µL/min/1e6 cells, omitting the unit from your answer.

compound: CSc1ccc(OCc2ncc([N+](=O)[O-])n2C)cc1
recorded-measurement: 1190

# context switch: different compound, same hepatocyte CLint at 1 µM
Quick note, hepatocyte CLint at 1 µM for CCOc1ccc2ccc(=O)oc2c1 [7-ethoxycoumarin, reference compound] landed at 272
